assay: in vivo; conditions: mouse, po
Below: a set of entries, each annotated with reported LD50 at 120 h.

>  <compound>
CCN=C(NC(=N)N)N(CC)CC.O=[N+]([O-])O [1,1,2-Triethylbiguanide, 1,1,2-Triethylbiguanide Nitrate]

>  <LD50 at 120 h>
> 2000 mg/kg

$$$$
>  <compound>
CN/C(=N\CCc1ccccc1)NC(=N)N [1-Methyl-2-β-phenethylbiguanide, 2-Methyl-1-β-phenethylbiguanide Nitrate]

>  <LD50 at 120 h>
2830 mg/kg

$$$$
>  <compound>
CCCN=C(NC)NC(=N)N.Cl [1-Methyl-2-n-propylbiguanide]

>  <LD50 at 120 h>
> 2000 mg/kg

$$$$
>  <compound>
Br.CC(C)N=C(NC(=N)N)NC(C)C [1,2-Diisopropylbiguanide, 1,2-Diisopropylbiguanide Hydrobromide]

>  <LD50 at 120 h>
> 2000 mg/kg

$$$$
>  <compound>
CCCCN/C(=N\CC)NC(=N)N [1-Ethyl-2-n-butylbiguanide]

>  <LD50 at 120 h>
> 2000 mg/kg

$$$$
